assay procedure: in vitro
measurement conditions: human, hek293t cells
result type: viability at 48 h, 25 µM (%)
# unit: % | format: bare number

molecule | u | viability at 48 h, 25 µM
CC(C#N)CSc1ccccc1NC(=O)CCl (centres unmarked) | % | 1.3

# input Could you share which viability at 48 h, 25 µM value was measured for `CCOc1ccc(NC(=O)CCl)cc1S(=O)(=O)N1CCCC1` ?
# output 1.41

# input Subsequent entry: `CC(C)NC(=O)C(C#N)=Cc1ccc(C#N)cc1`
# output 123

# input Subsequent entry: CC(Cl)C(=O)N1CCCC1c1cccc2c1OCCO2 (centres unmarked)
# output 89.6
